Kindly state GI50 for each of the entries shown.
# Test system: SK-MEL-5 melanoma
# experimental.details: NCI tumour cell line growth inhibition, 48 h

INPUT: Check the records and state GI50 for Cc1c(-c2ccnc(N)n2)c2c(n1Cc1ccccc1)C(=O)c1ccccc1C2=O
OUTPUT: 12800 nM

INPUT: Give the measured GI50 for O=c1[nH]c2nc(NC3CCOCC3)ncc2cc1Oc1ccc(F)cc1F
OUTPUT: > 25000 nM

INPUT: Hello, please tell me recorded GI50 for this one: O=C(Nc1ccc(-c2nc(-c3cccc(OCCN4CCOCC4)c3)c(-c3ccnc(Br)c3)[nH]2)cc1)c1ccccc1
OUTPUT: 1770 nM

INPUT: Check the records and state GI50 for Cc1c2cc(Cl)c3ccccc3c2c[n+]2ccccc12
OUTPUT: 1220 nM

INPUT: Provide measured GI50 value, entry: C#Cc1nc2ccccc2c(=O)[nH]1
OUTPUT: 633 nM

INPUT: Report GI50 for Cc1nc2ccc(NC(=O)CCNC(=O)CCCc3ccc(CC(C(=O)O)C(=O)O)cc3)cc2s1
OUTPUT: > 100000 nM

INPUT: Give GI50 for CCCCCC[C@H](C)Nc1nc2ccccc2c2occc12
OUTPUT: 3660 nM

====

# System: ACHN renal
# experimental.details: NCI tumour cell line growth inhibition, 48 h
Can you tell me TGI for the items I'm about to list?

INPUT: Give recorded TGI. COc1cc(C2c3cc4c(cc3C3OC[C@@H]2C3CO)OCO4)cc(OC)c1OC (stereo partly specified)
OUTPUT: > 100 µM

INPUT: Specify measured TGI for O=c1[nH]n(Cc2ccccc2)c2ccc([N+](=O)[O-])cc12 .
OUTPUT: > 100 µM

INPUT: Tell us which TGI value is on record for O=C(c1ccccc1)c1c(NCC(O)CN2CCOCC2)n(Cc2ccccc2)c(=O)n(Cc2ccccc2)c1=O (stereo unspecified)
OUTPUT: > 100 µM

INPUT: Give reported TGI value for O=C(Nc1ccccc1C(=O)NCc1ccccc1)/C(=C/c1ccccc1)NC(=O)c1ccccc1
OUTPUT: > 100 µM

INPUT: Give reported TGI value for CCN(CC)C(=S)SS(=O)(=O)c1cccc(N)c1
OUTPUT: > 100 µM

INPUT: Please supply the value of reported TGI for the item Cc1ccc(N=Nc2c(O)ccc3ccccc23)cc1
OUTPUT: > 100 µM

====

# Test system: CAKI-1 renal
# experimental.details: NCI tumour cell line growth inhibition, 48 h
endpoint: TGI

INPUT: Supply measured TGI of O=C(Nc1ccccc1C(=O)NCc1ccccc1)/C(=C/c1ccccc1)NC(=O)c1ccccc1 in your reply.
OUTPUT: > 100 µM

INPUT: Retrieve TGI measured for Cc1cc(OC(=O)NCn2cc(-c3ccccc3)nn2)ccc1Cl and print it.
OUTPUT: > 100 µM

INPUT: Return TGI (reported value) for this compound: CN1C(=O)C(O)C[C@@H]1c1ccccc1 (stereo partly drawn)
OUTPUT: > 100 µM

====

# System: T-47D breast
# experimental.details: NCI tumour cell line growth inhibition, 48 h
endpoint: GI50

INPUT: Answer with reported GI50 of COc1ccc(C(=O)NNc2nc(Cl)nc(N3CCN(C(c4ccccc4)c4ccccc4)CC3)n2)cc1
OUTPUT: 64 µM

INPUT: Tell us which GI50 value is on record for Cc1ccc(S(=O)(=O)c2nc(-c3ccccc3)oc2S(C)=O)cc1 (stereo not drawn)
OUTPUT: 1.23 µM

INPUT: Hello, please tell me recorded GI50 for this one: Cc1nnc2n1N=C(c1ccc(Cl)cc1Cl)/C(=C/c1ccc(-c3ccc([N+](=O)[O-])cc3Cl)o1)S2
OUTPUT: 83 µM

INPUT: State its GI50 for this compound: CN(C)c1nc2ccccc2c2c1c1c(n2Cc2ccccc2)-c2ccccc2C1=O
OUTPUT: 55.6 µM

INPUT: Read off the recorded GI50 for COc1ccc(C(O)c2cc3c(N)c(C(=O)Nc4cccc(Cl)c4)sc3nc2C)cc1 (stereo not drawn)
OUTPUT: 1.15 µM

INPUT: Return GI50 (reported value) for this compound: C#Cc1nc2ccccc2c(=O)[nH]1
OUTPUT: 1.36 µM

INPUT: Quote GI50 reported for COc1ccc2[nH]c(O)c(/C=c3/cc4c(c(-c5ccc(F)c(OC)c5)n3)=Nc3ccccc3-4)c2c1 please.
OUTPUT: 1.85 µM

INPUT: Consider the compound Cc1c2cc(Cl)c3ccccc3c2c[n+]2ccccc12 . State its measured GI50.
OUTPUT: 0.544 µM

The reported measurements were obtained from PubChem BioAssay (NCI).
